In this section we review reported Percent Effect values for a set of molecules.
# targetOfAssay: Protein translocase subunit SecA (Escherichia coli (strain K12))
# procedureDetails: Assay to Identify E. coli SecA ATPase Inhibitors
# Format: functional
# Design: scale not given: direction of the effect not stated beside the values
# studyConditions: 30 µM
Measured potencies and affinities stand elsewhere.

{"molecule": "O=C1NCCCCC1Sc1nnc(-c2cccnc2)n1C1CC1 (stereo unspecified)", "Percent Effect [%]": -2.96}
{"molecule": "O=C(C1CCCc2[nH]ncc21)N1CCCCCC1 (stereo unspecified)", "Percent Effect [%]": -3.72}
{"molecule": "Cc1noc(C)c1CN1CC2(CCN(C(=O)c3cscn3)CC2)CC1=O", "Percent Effect [%]": -5.65}
{"molecule": "CN(Cc1cccs1)C(=O)CS(=O)(=O)Cc1ccc(Cl)c(Cl)c1", "Percent Effect [%]": -3.83}
{"molecule": "Cc1cnn(CC2CCCN2C(=O)c2ccc3[nH]nnc3c2)c1 (stereo unspecified)", "Percent Effect [%]": -1.48}
{"molecule": "COc1ccc2c(ccn2CCC(=O)O)c1", "Percent Effect [%]": -6.14}

###

# targetOfAssay: AMP-activated protein kinase, AMPK (Homo sapiens) (UniProt P54646+O43741+P54619+Q9UGJ0+Q9Y478+Q13131+Q9UGI9)
# procedureDetails: AMP-dependent Kinase enzyme assay. An in vitro enzyme assay that detects ADP turnover that is directly proportional to AMPK activity. This uses naive AMPK that is activated during the assay with MK-8722
# Assay type: functional
# Design: scale not given: direction of the effect not stated beside the values
# studyConditions: 30 µM
recordedEndpoint: Percent Effect (%)

{"compound": "O=C(CCCOc1ccc(F)cc1F)N1CCCC1Cn1cccn1 (centres undefined)", "recordedEndpoint": "Percent Effect", "measuredValue": -5.85}
{"compound": "O=C1CCC2(CCN(Cc3cc(F)ccc3Cl)CC2)CN1C1CCCC1", "recordedEndpoint": "Percent Effect", "measuredValue": -4.38}
{"compound": "Cc1nnc(N2CCC(CS(N)(=O)=O)CC2)c(C#N)c1C", "recordedEndpoint": "Percent Effect", "measuredValue": -17.4}
{"compound": "Cc1nc(NCc2nncn2C2CC2)c2c(CC(C)C)csc2n1", "recordedEndpoint": "Percent Effect", "measuredValue": -3.8}
{"compound": "COc1c(CNCC(O)c2cccc(F)c2)c(C(C)C)nn1C (centres undefined)", "recordedEndpoint": "Percent Effect", "measuredValue": -6.14}
{"compound": "O=C(NCc1ccccn1)N(Cc1ccc(F)cc1F)C1CC1", "recordedEndpoint": "Percent Effect", "measuredValue": 3.15}
{"compound": "O=C(NCCS(=O)(=O)N1CCc2ccccc21)c1c(O)cc(F)cc1F", "recordedEndpoint": "Percent Effect", "measuredValue": -0.496}
{"compound": "Cc1nc(C)n(CC2CN(Cc3cccc(C(N)=O)c3)CCO2)n1 (centres undefined)", "recordedEndpoint": "Percent Effect", "measuredValue": 5.74}
{"compound": "Cc1nn(CC(=O)N2CCC(Nc3cccnn3)CC2)c(C)c1Cl", "recordedEndpoint": "Percent Effect", "measuredValue": -2.51}
{"compound": "COc1cccc2c1OCC(NC(=O)NCc1cccs1)C2 (centres undefined)", "recordedEndpoint": "Percent Effect", "measuredValue": 0.286}
{"compound": "COc1cc(CN(C)C(=O)NCCC2CCCO2)ccc1SC (centres undefined)", "recordedEndpoint": "Percent Effect", "measuredValue": -5.1}
{"compound": "Cn1cc(C(=O)CC2CCCN2C(=O)c2n[nH]c3ccccc23)cn1 (centres undefined)", "recordedEndpoint": "Percent Effect", "measuredValue": 3.62}
{"compound": "Cc1ncsc1C(=O)NC1CCN(CC(=O)N(C)C(C)(C)C#N)CC1", "recordedEndpoint": "Percent Effect", "measuredValue": -2.06}
{"compound": "CN1CCc2nc(C3CCN(C(=O)CCC4CCCC4)CC3)ncc2C1", "recordedEndpoint": "Percent Effect", "measuredValue": 7.92}
{"compound": "COc1ccc(NC(=O)CCC2CCCN(Cc3ncon3)C2)c(C)c1 (centres undefined)", "recordedEndpoint": "Percent Effect", "measuredValue": -0.626}
{"compound": "Cc1cc(-c2nnn(CCNS(C)(=O)=O)n2)ccc1F", "recordedEndpoint": "Percent Effect", "measuredValue": 0.593}
{"compound": "CCc1nc(CN2CCCN(c3nc4ccccc4o3)CC2)no1", "recordedEndpoint": "Percent Effect", "measuredValue": -1.96}
{"compound": "O=C(CCCc1nc2ccccc2[nH]1)N1CCCC(n2cccn2)C1 (centres undefined)", "recordedEndpoint": "Percent Effect", "measuredValue": -3.13}
{"compound": "O=C(c1ccno1)N1CC[C@@H]2O[C@@H](COCCN3CCCC3)CC[C@@H]21", "recordedEndpoint": "Percent Effect", "measuredValue": 1.12}
{"compound": "Cc1c(C(=O)O)sc2nc(Cc3ccccc3)nc(N)c12", "recordedEndpoint": "Percent Effect", "measuredValue": 4.73}
{"compound": "Cc1oc(C)c(C(=O)NCc2cccc(NC(=O)CN(C)C)c2)c1C", "recordedEndpoint": "Percent Effect", "measuredValue": -0.508}
{"compound": "CC1CCN(S(=O)(=O)c2cccn(CC(=O)N3CCOCC3)c2=O)CC1", "recordedEndpoint": "Percent Effect", "measuredValue": 5.14}
{"compound": "CCOCCCn1c(NC(=O)c2scnc2C)nc2ccccc21", "recordedEndpoint": "Percent Effect", "measuredValue": -17.4}
{"compound": "CC(NC(=O)CSCC#N)c1cccc(NC(=O)c2ccccc2)c1 (centres undefined)", "recordedEndpoint": "Percent Effect", "measuredValue": -4.8}

###

# targetOfAssay: Tyrosyl-tRNA synthetase, putative (Trypanosoma cruzi (strain CL Brener))
# Sequence (whole entry): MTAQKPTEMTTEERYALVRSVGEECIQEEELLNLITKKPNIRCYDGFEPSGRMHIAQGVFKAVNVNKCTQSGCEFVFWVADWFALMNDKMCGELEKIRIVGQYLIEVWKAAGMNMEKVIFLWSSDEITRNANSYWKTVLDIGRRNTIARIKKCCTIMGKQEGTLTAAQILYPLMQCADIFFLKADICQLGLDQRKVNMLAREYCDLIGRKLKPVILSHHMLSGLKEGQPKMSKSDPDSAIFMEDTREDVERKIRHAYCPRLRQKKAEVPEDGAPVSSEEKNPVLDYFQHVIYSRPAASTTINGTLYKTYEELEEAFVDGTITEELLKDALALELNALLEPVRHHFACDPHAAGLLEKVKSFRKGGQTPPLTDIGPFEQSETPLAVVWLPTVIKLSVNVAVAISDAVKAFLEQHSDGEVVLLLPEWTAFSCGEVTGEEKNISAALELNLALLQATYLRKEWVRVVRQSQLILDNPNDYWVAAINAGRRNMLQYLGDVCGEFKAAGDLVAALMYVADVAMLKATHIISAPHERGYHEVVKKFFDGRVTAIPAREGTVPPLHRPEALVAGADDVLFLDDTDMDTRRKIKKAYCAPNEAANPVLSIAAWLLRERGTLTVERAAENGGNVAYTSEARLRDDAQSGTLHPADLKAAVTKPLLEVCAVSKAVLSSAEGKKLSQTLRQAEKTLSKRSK
# procedureDetails: Trypanosoma cruzi tyrosyl tRNA synthetase (TcYRS) _High Tyrosine SOP; further: in the data most compounds retested in dose-response had high values
# Type: functional
# Design: scale not given: direction of the effect not stated beside the values
# studyConditions: 30 µM
In this section we review reported Percent Effect values for a set of compounds.

{"compound": "CN1CCc2nc(C3CCN(C(=O)CCC4CCCC4)CC3)ncc2C1", "Percent Effect [%]": 44.7}
{"compound": "Cc1nn(C)c(Cl)c1C1CCCN1C(=O)c1ccc2c(c1)OCO2 (stereo unspecified)", "Percent Effect [%]": 0.493}
{"compound": "O=C(O)[C@@H]1CN(C(=O)c2ccc3[nH]nnc3c2)C[C@H]1c1cccc(F)c1", "Percent Effect [%]": 4.17}
{"compound": "O=C(c1ccc(F)c(F)c1)N1CCCSCC1CN1CCCC1 (stereo unspecified)", "Percent Effect [%]": 7.41}
{"compound": "COCC(=O)N1CCCn2c(CN3CCCCC3)nnc2C1", "Percent Effect [%]": 7.29}
{"compound": "COc1cccc2c1OCC(CNC(=O)CCCN1CCOCC1)C2 (stereo unspecified)", "Percent Effect [%]": 8.6}

###

In this section we review reported Percent Effect values for a set of molecules.
# targetOfAssay: Ubiquitin-activating enzyme e1, putative (Leishmania donovani (strain BPK282A1)) (UniProt E9BSI1)
# Sequence (E9BSI1 as listed by the source): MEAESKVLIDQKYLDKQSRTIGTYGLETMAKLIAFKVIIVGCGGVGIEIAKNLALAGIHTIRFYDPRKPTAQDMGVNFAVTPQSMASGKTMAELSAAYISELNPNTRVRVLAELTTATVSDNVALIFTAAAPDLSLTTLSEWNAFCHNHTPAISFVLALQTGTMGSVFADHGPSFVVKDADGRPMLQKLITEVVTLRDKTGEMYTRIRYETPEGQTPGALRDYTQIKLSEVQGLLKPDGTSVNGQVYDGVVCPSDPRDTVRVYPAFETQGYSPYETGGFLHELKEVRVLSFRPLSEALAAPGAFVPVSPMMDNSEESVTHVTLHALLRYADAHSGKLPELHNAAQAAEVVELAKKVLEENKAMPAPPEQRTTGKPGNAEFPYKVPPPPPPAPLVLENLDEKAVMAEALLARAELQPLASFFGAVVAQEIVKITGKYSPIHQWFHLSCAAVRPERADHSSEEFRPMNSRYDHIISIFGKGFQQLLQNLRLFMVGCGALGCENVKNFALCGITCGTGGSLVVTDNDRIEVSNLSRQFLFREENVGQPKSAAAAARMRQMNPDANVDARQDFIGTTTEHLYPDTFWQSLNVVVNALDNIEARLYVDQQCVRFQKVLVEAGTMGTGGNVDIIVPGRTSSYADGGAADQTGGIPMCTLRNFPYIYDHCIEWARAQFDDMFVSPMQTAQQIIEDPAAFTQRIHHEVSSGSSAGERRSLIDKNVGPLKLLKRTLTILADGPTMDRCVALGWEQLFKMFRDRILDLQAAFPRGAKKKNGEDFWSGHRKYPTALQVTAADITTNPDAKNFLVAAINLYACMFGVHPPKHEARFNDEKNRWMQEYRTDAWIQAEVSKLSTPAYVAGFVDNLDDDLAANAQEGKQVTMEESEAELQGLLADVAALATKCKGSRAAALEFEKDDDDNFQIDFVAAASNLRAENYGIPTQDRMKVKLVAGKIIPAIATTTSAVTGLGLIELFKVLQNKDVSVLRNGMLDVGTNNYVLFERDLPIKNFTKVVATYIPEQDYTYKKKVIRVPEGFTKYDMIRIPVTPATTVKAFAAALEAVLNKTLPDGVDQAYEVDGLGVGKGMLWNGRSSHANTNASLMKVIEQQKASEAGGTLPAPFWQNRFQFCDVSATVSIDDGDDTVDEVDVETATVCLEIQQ
# procedureDetails: Leishmania donovani Ubiquitin Activating Enzyme (LdE1)
# Type: functional
# Design: scale not given: direction of the effect not stated beside the values
# studyConditions: 30 µM
Entries with a potency or affinity are not part of this list.

{"molecule": "Cc1ccc(-c2nc(CNC3CCc4ncnn4C3)co2)c(C)c1 (stereo unspecified)", "Percent Effect": "-41.6%"}
{"molecule": "O=C(CCc1nc2cccnc2[nH]1)Nc1cccnc1", "Percent Effect": "22.7%"}
{"molecule": "COc1ccc(CS(=O)(=O)CC(=O)NCC2CC2)cc1F", "Percent Effect": "10.5%"}
{"molecule": "CCc1n[nH]c(C2CN(CCc3ccncc3)CCO2)n1 (stereo unspecified)", "Percent Effect": "3.8%"}
{"molecule": "O=C(c1ccsc1)N1C[C@@H](CN2CCCC2)[C@@H](CO)C1", "Percent Effect": "2.67%"}
{"molecule": "COc1ccc(NCc2nc(=O)n(CCC(C)C)[nH]2)cc1", "Percent Effect": "10.5%"}
{"molecule": "c1cc(OCc2ccc3c(c2)OCCO3)ccc1CNC1CC1", "Percent Effect": "0%"}
{"molecule": "Cc1nc[nH]c1CN1C[C@@H]2CC[C@H](C1)N(C(=O)CCNS(C)(=O)=O)C2", "Percent Effect": "-1.39%"}
{"molecule": "CN(Cc1cnn(C)c1)C(=O)NC1CCN(c2ncccn2)CC1", "Percent Effect": "13%"}
{"molecule": "Cc1ncc(CN2Cc3ccccc3O[C@]3(CC[C@H](CO)CC3)C2)cn1", "Percent Effect": "6.76%"}
{"molecule": "O=C(NCCOc1ccc(F)c(F)c1)NCc1ccncc1", "Percent Effect": "5.41%"}
